assay summary: chemical genetic growth profiling, strain panel (AID 1159580);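 also: tested at 20 µM; growth read once vehicle control cultures reached saturation at 30 °C; 1 = growth at the plate median or of vehicle wells; lower values mean less growth of the strain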
reported conditions: S. cerevisiae deletion strains, growth OD, locus YNL322C, strain KRE1, stronger effect = lower value
The campaign covered roughly 5,500 compounds. About 2,000 (36%) were called active. Inconclusive results (about 18%) are left out. The list shows a part of the results.
reported metric: normalized growth

>  <compound>
O=C1c2ccccc2C2(c3ccccc3)NCCN12 (centres undefined)

>  <recorded measurement>
0.996

$$$$
>  <compound>
CCOC(=O)CNc1ccc(Cl)c(Cl)c1

>  <recorded measurement>
0.971

$$$$
>  <compound>
CC(=O)OC1CC(O)C(C)(C)C2CC(=O)C3(C)C(CCC4(C)C(c5ccoc5)OC(=O)C5OC543)C12C (centres undefined)

>  <recorded measurement>
0.999

$$$$
>  <compound>
FC(F)(F)c1ccc2[nH]c(=S)[nH]c2c1

>  <recorded measurement>
0.997

$$$$

====

assay summary: chemical genetic growth profiling, strain panel (AID 1159580)
reported conditions: S. cerevisiae deletion strains, growth OD, locus YER123W, strain YCK3
Among all 5,500 compounds or so, about 2,000 (36%) were called active. Another 18% or so got no clear call; they are omitted. Cut-off read from the data, not from the text of the source: active = normalized growth mostly below about 0.91 (no sharp cut-off); inconclusive = no clear call, values can overlap the other calls; inactive = mostly above about 0.92. The list shows a part of the results.
Labels: yes = active, no = inactive

>  <molecule>
COc1ccc2c(c1)CCc1sc(NC(=O)c3ccco3)nc1-2

>  <class>
no

$$$$
>  <molecule>
CN(C)c1ccc(/C=C/c2ccc3ccccc3[n+]2C)cc1

>  <class>
no

$$$$
>  <molecule>
O=C(NNc1ccccc1)c1cc(-c2ccc(Cl)cc2)oc1C(F)(F)F

>  <class>
yes

$$$$
>  <molecule>
Clc1ccc(CSc2nccn2-c2cc(Cl)ccc2Cl)cc1

>  <class>
no

$$$$
>  <molecule>
CCOC(=O)c1sc(S(C)=NC(=O)Nc2ccc(Cl)cc2)c2c1CCC=C2 (stereo not drawn)

>  <class>
no

$$$$
>  <molecule>
Nc1ccccc1C(=O)Nc1cc(C(F)(F)F)cc(C(F)(F)F)c1

>  <class>
no

$$$$
>  <molecule>
COc1ccc(-c2csc(-c3cccnc3)n2)cc1

>  <class>
no

$$$$
>  <molecule>
N/C(=N/O)c1ccc(Oc2ccc(C3SCCS3)cc2)c([N+](=O)[O-])c1

>  <class>
no

$$$$
>  <molecule>
O=[N+]([O-])c1ccsc1Oc1cccc(C(F)(F)F)c1

>  <class>
no

$$$$
>  <molecule>
Clc1ccccc1-c1csc(-c2cccnc2)n1

>  <class>
no

$$$$
>  <molecule>
Clc1cc(Cl)cc(C=NCc2ccccc2)c1

>  <class>
yes

$$$$
>  <molecule>
CC1C(c2ccccc2)N(C)C(c2ccccc2)CC1(O)c1ccc(F)cc1 (stereo not drawn)

>  <class>
no

$$$$
>  <molecule>
COc1ccc(Nc2nc(NC(=O)Nc3ccc(Cl)cc3)n[nH]2)cc1

>  <class>
no

$$$$
>  <molecule>
Clc1ccccc1-c1csc(-c2ccncc2)n1

>  <class>
no

$$$$
>  <molecule>
O=S(=O)(NCc1cc(Cl)cc(Cl)c1)c1cc(C(F)(F)F)cc(C(F)(F)F)c1

>  <class>
no

$$$$
>  <molecule>
Cc1ccccc1/C=C/c1c[nH]c2ccccc12

>  <class>
no

$$$$
>  <molecule>
CC1=CC(=O)N(c2ccc(F)c(Cl)c2)C1=O

>  <class>
yes

$$$$
>  <molecule>
Cc1ccc(NC(=S)C(C#N)C(=O)N2CCOCC2)c(C)c1 (stereo not drawn)

>  <class>
no

$$$$

====

assay summary: chemical genetic growth profiling, strain panel (AID 1159580);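 also: tested at 20 µM; growth read once vehicle control cultures reached saturation at 30 °C; 1 = growth at the plate median or of vehicle wells; lower values mean less growth of the strain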
reported conditions: S. cerevisiae deletion strains, growth OD, locus YIL073C, strain SPO22, stronger effect = lower value
Among all 5,500 compounds or so, about 2,000 (36%) were called active. Another 18% or so got no clear call; they are omitted. The list shows a part of the results.
Hi! Could you tag entries with normalized growth below 1 as 1.0, and those at or above as 0.0? Much appreciated.

>  <molecule>
COC(=O)[C@@H]1OC(=O)C2OC23[C@@]1(C)CCC1[C@@]2(C)CCC(=O)C(C)(C)C2C[C@@H](OC(C)=O)[C@]13C (some centres undefined)

>  <class>
0.0

$$$$
>  <molecule>
CCC(=O)OC1[C@@H]2CC3=C4CC(=O)O[C@@H](c5ccoc5)[C@]4(C)CCC3[C@@](C)(C2=O)[C@@H](CC(=O)OC)C1(C)C (some centres undefined)

>  <class>
0.0

$$$$
>  <molecule>
c1ccc2c(CC3=NCCN3)cccc2c1

>  <class>
0.0

$$$$
>  <molecule>
COC1=CC(=O)OC(CCc2ccc(OC)c(OC)c2)C1 (centres undefined)

>  <class>
0.0

$$$$
>  <molecule>
CC(C)/C(O)=C1/C(=O)O[C@@H](c2ccoc2)[C@]2(C)C(O)[C@@H](O)[C@@]34OC5(C)OC67CC(C)(C(O)[C@]6(O)[C@@H](O)[C@]3(O5)C12)[C@H](CC(=O)O)[C@]74C (some centres undefined)

>  <class>
0.0

$$$$
>  <molecule>
C[C@]12CCC3C(CC[C@H]4C[C@@H](O)CC[C@]34C)C1CC[C@@H]2O (some centres undefined)

>  <class>
1.0

$$$$
>  <molecule>
CC(=O)O[C@H]1C[C@@H](OC(C)=O)C(C)(C)C2C[C@@H](O)[C@]3(C)C(CC[C@@]4(C)[C@H](c5ccoc5)OC(=O)[C@H]5O[C@]543)[C@]21C (some centres undefined)

>  <class>
1.0

$$$$
>  <molecule>
NCCCNCCSP(=O)(O)O

>  <class>
1.0

$$$$
>  <molecule>
C=NC(C(=O)NC1C(=O)N2C1SC(C)(C)C2C(=O)O)c1ccccc1 (centres undefined)

>  <class>
0.0

$$$$
>  <molecule>
CC(=O)OC1CC(OC(C)=O)C2(C)C(CC(OC(C)=O)C3(C)C2CCC2(C)C(c4ccoc4)OC(=O)C4OC423)C1(C)C (centres undefined)

>  <class>
1.0

$$$$
>  <molecule>
NCC[C@@H](O)C(=O)N[C@@H]1C[C@H](N)[C@@H](O[C@H]2O[C@H](CN)[C@@H](O)[C@H](O)[C@H]2O)[C@H](O)[C@H]1O[C@H]1O[C@H](CO)[C@@H](O)[C@H](N)C1O (some centres undefined)

>  <class>
0.0

$$$$
>  <molecule>
Clc1ccc(COC(Cn2ccnc2)c2ccc(Cl)cc2Cl)c(Cl)c1 (centres undefined)

>  <class>
1.0

$$$$
>  <molecule>
COc1ccc2c(c1)OCC(Cc1ccc(OC)c(O)c1)C2=O (centres undefined)

>  <class>
1.0

$$$$
>  <molecule>
O=C(O)COc1ccc(Cl)cc1Cl

>  <class>
0.0

$$$$
>  <molecule>
Oc1c(Cl)cc(Cl)c(Cl)c1Cc1c(O)c(Cl)cc(Cl)c1Cl

>  <class>
1.0

$$$$
>  <molecule>
COc1ccc2c(c1)OCC(Cc1ccc(OC)c(OC)c1)C2=O (centres undefined)

>  <class>
1.0

$$$$
>  <molecule>
CN=C(N)NCCCC(N)C(=O)O (centres undefined)

>  <class>
0.0

$$$$
>  <molecule>
CC(=O)O[C@@H]1CC2C(C)(C)[C@H](O)CC[C@]2(C)C2CC[C@@]3(C)[C@H](c4ccoc4)OC(=O)[C@H]4O[C@]43[C@@]21C (some centres undefined)

>  <class>
0.0

$$$$

====

assay summary: chemical genetic growth profiling, strain panel (AID 1159580);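 also: tested at 20 µM; growth read once vehicle control cultures reached saturation at 30 °C; 1 = growth at the plate median or of vehicle wells; lower values mean less growth of the strain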
reported conditions: S. cerevisiae deletion strains, growth OD, locus YJL134W, strain LCB3
The whole screen tested about 5,500 compounds, of which about 2,000 (36%) were called active. Inconclusive results (about 18%) are left out. Cut-off read from the data, not from the text of the source: active = normalized growth mostly below about 0.91 (no sharp cut-off); inconclusive = no clear call, values can overlap the other calls; inactive = mostly above about 0.92. The list shows a part of the results.
Labels: Yes (active), No (inactive)

>  <molecule>
NC(N)=NCCN1CCCCCCC1

>  <class>
No

$$$$
>  <molecule>
COc1cc2c(cc1OC)C1(O)C(=O)c3ccc(O)c(C(=O)O)c3OC1CO2 (centres undefined)

>  <class>
No

$$$$
>  <molecule>
O=c1oc2ccccc2cc1O

>  <class>
No

$$$$
>  <molecule>
Oc1c(Cl)cc(Cl)c(Cl)c1Cc1c(O)c(Cl)cc(Cl)c1Cl

>  <class>
Yes

$$$$
>  <molecule>
COc1ccc2c(=O)c(OC)c(-c3ccccc3)oc2c1

>  <class>
No

$$$$
>  <molecule>
COc1ccc2oc(-c3ccccc3)c(OC)c(=O)c2c1

>  <class>
No

$$$$
>  <molecule>
NC1(C(=O)O)CCCC1

>  <class>
No

$$$$
>  <molecule>
O=C(O)C(O)C(O)C(O)C(O)C(=O)O (centres undefined)

>  <class>
No

$$$$
>  <molecule>
COc1ccc2c(c1)OCC(Cc1ccc(OC)c(OC(C)=O)c1)C2=O (centres undefined)

>  <class>
No

$$$$

====

assay summary: chemical genetic growth profiling, strain panel (AID 1159580);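 also: tested at 20 µM; growth read once vehicle control cultures reached saturation at 30 °C; 1 = growth at the plate median or of vehicle wells; lower values mean less growth of the strain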
reported conditions: S. cerevisiae deletion strains, growth OD, locus YMR205C, strain PFK2, stronger effect = lower value
Out of some 5,500 compounds screened, about 2,000 (36%) were called active. Not shown: some 18% with an inconclusive outcome. The list shows a part of the results.
Entries annotated with measured normalized growth

>  <molecule>
CC(=O)O[C@@H]1CC2C(C)(C)C(=O)C3OC3[C@]2(C)C2CC[C@@]3(C)[C@H](c4ccoc4)OC(=O)C4OC43[C@@]21C (stereo partly drawn)

>  <normalized growth>
0.991

$$$$
>  <molecule>
CCCCC(=O)O[C@]1(C(=O)CO)CCC2C3CCC4=CC(=O)CC[C@]4(C)C3[C@@H](O)C[C@@]21C (stereo partly drawn)

>  <normalized growth>
0.997

$$$$
>  <molecule>
CC(C)c1nc(N(C)S(C)(=O)=O)nc(-c2ccc(F)cc2)c1/C=C/[C@@H](O)C[C@@H](O)CC(=O)O

>  <normalized growth>
1.02

$$$$
>  <molecule>
C[C@H]1C[C@@H](O)[C@]2(O)[C@@]13CC(=O)OC[C@@]2(C)[C@](C)(O)C(=O)C3

>  <normalized growth>
1.04

$$$$
>  <molecule>
CC(=O)O[C@]1(C)CC[C@@]23CC1C(C)(C)[C@@H]2CC[C@H]3C

>  <normalized growth>
0.933

$$$$
>  <molecule>
CC(=O)O[C@@H]1CC2C(C)(C)[C@H](O)C=C[C@]2(C)C2CC[C@@]3(C)[C@H](c4ccoc4)OC(=O)C4OC43[C@@]21C (stereo partly drawn)

>  <normalized growth>
1.02

$$$$
>  <molecule>
C=CCS(=O)C[C@H](N)C(=O)O (stereo partly drawn)

>  <normalized growth>
1.01

$$$$
>  <molecule>
CC(=O)O[C@@H]1CC2C(C)(C)[C@H](O)CC[C@]2(C)C2CC[C@@]3(C)[C@H](c4ccoc4)OC(=O)C4OC43[C@@]21C (stereo partly drawn)

>  <normalized growth>
1.04

$$$$

Attribution: PubChem BioAssay AID1159580
